# Tested on: isolated rat bladder
# PROTOCOL: Functional experiments using isolated rat bladder (carbachol concentration response curve)
# Format: cell-based
# RECORDED_CONDITIONS: isolated rat bladder strips, carbachol-induced contraction, antagonist added 20 min before second CRC
Please respond with 1 when measured Functional Assay pKB is strictly beneath 7, and with -1 in all other cases.

Solved cases below.
Cc1ccc(O)c(C(CC(=O)NC2C3CNCC32)c2ccccc2)c1 (stereo not drawn) [Compound No. 3] = 1
Cc1ccc(O)c(C(CCNC2C3CN(Cc4ccccc4)CC32)c2ccccc2)c1 (single isomer, unassigned) [Compound No. 16] = -1
COc1ccc(C)cc1C(CC(=O)NC1C2CNCC21)c1ccccc1 (stereo not drawn) [Compound No. 4] = 1
Cc1ccc(O)c(C(CC(=O)OCCCCNOCCC2C3CNCC23)c2ccccc2)c1 (stereo not drawn) [Compound No. 6] = 1

For the next question, use this compound.
[ask] For CCOC(=O)N(CCCCOC(=O)CC(c1ccccc1)c1cc(C)ccc1OC)C1C2CN(Cc3ccccc3)CC21 (stereo not drawn) [Compound No. 12] , is the recorded Functional Assay pKB below the cut-off of 7?
[reply] 1

The origin of these recorded values is patent US7517905B2.
